target: human PD-1/PD-L1 binding (Homo sapiens, UniProt Q9NZQ7); construct: PD-L1-His protein (19 to 238 amino acids) (Abcam #ab167713); purchased Abcam (PD-L1-His); R&D (PD-1-Fc) ab167713; 1086-PD; experiment: Inhibition of human PD-1/PD-L1 binding (TR-FRET/HTRF); conditions: TR-FRET, PD-L1-His and PD-1-Fc; read-out: PD-1/PD-L1 binding IC50
Sequence (Q9NZQ7 19-238): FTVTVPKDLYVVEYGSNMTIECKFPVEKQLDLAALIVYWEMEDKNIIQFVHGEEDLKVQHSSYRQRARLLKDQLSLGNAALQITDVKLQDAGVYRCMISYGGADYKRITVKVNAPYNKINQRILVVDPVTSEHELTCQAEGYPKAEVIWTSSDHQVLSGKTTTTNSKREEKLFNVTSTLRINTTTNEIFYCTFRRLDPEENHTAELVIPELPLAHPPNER
This listing pairs compounds with measured IC50.

>  <compound>
COc1cc(C(=O)Nc2cccc(-c3cccc(NC(=O)c4nc5c(n4C)CCN(C)C5)c3Cl)c2C)ncc1CN[C@@H]1CCNC1=O [Embodiment 97]

>  <IC50>
5 nM

$$$$
>  <compound>
COc1nc(-c2cccc(-c3cccc(NC(=O)c4nc5c(n4C)CCN(C)C5)c3Cl)c2Cl)ccc1CN1CC2(COC2)C1 [Embodiment 124]

>  <IC50>
3.8 nM

$$$$
>  <compound>
COc1cc(C(=O)Nc2cccc(-c3cccc(NC(=O)c4nc5c(n4C)CCN(C)C5)c3Cl)c2C)ncc1CNC1(C(=O)O)COC1 [Embodiment 102]

>  <IC50>
1 nM

$$$$
>  <compound>
COc1cc(C(=O)Nc2cccc(-c3cccc(NC(=O)c4nc5c(n4C)CCN(C)C5)c3Cl)c2C)ncc1CNCCNC(C)=O [Embodiment 40]

>  <IC50>
2 nM

$$$$
>  <compound>
COc1cc(-c2cccc(-c3cccc(NC(=O)c4nc5c(n4C)CCN(C)C5)c3Cl)c2C)ncc1CN1CC[C@@H](F)C1 [Embodiment 60]

>  <IC50>
6.9 nM

$$$$
>  <compound>
COc1nc(-c2cccc(-c3cccc(NC(=O)c4nc5c(n4C)CCN(C)C5)c3Cl)c2Cl)ccc1CN1CC(OC(C)=O)C1 [Embodiment 122]

>  <IC50>
3.5 nM

$$$$

---

This listing pairs molecules with measured Drug concentration in tumor.
assay: Pharmacokinetic test of plasma and tumor of tumor-bearing nude mice; type: in vivo; details: tumor-bearing nude mice, p.o. 30 mg/kg
experimental_endpoint: Drug concentration in tumor (ng/mL)

>  <molecule>
COc1nc(-c2cccc(-c3cccc(NC(=O)c4nc5c(n4C)CCN(C)C5)c3Cl)c2Cl)ccc1CN[C@H]1CCOC[C@@H]1O (relative stereo)

>  <experimental_endpoint>
Drug concentration in tumor

>  <scale_unit>
ng/mL

>  <value_reported>
1009

$$$$
>  <molecule>
COc1nc(-c2cccc(-c3cccc(NC(=O)c4nc5c(n4C)CCN(C)C5)c3Cl)c2Cl)ccc1CN1CC(C(=O)N(C)C)C1

>  <experimental_endpoint>
Drug concentration in tumor

>  <scale_unit>
ng/mL

>  <value_reported>
697

$$$$
>  <molecule>
COc1nc(-c2cccc(-c3cccc(NC(=O)c4nc5c(n4C)CCN(C)C5)c3Cl)c2Cl)ncc1CN1CC(CO)C1

>  <experimental_endpoint>
Drug concentration in tumor

>  <scale_unit>
ng/mL

>  <value_reported>
1504

$$$$
>  <molecule>
COc1nc(-c2cccc(-c3cccc(NC(=O)c4nc5c(n4C)CCN(C)C5)c3Cl)c2Cl)cnc1CN1CC2(C1)CN(C(C)=O)C2

>  <experimental_endpoint>
Drug concentration in tumor

>  <scale_unit>
ng/mL

>  <value_reported>
707

$$$$

---

molecular target: PD-L1 protein on the surface of MC38-hPDL1 tumor cells (Homo sapiens, UniProt Q9NZQ7); construct: expressed in transfected cells; host or cells: MC38-hPDL1 (mouse colon cancer cells); assay: Induction of endocytosis of PD-L1 on the surface of tumor cells (flow cytometry); format: cell-based; conditions: inducing endocytosis of PD-L1, MC38-hPDL1 cells, 16 hours incubation; read-out: MC38 IC50
Sequence (Q9NZQ7 19-290): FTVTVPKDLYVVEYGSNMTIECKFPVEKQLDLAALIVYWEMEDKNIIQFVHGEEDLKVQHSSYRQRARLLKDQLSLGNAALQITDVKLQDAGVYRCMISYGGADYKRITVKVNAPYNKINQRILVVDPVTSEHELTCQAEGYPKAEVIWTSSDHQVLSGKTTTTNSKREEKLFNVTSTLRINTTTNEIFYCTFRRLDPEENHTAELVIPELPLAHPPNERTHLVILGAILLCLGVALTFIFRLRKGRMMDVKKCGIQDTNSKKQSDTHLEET
This listing pairs compounds with measured IC50.
experimental_endpoint: IC50

>  <compound>
C=CCNCc1cnc(C(=O)Nc2cccc(-c3cccc(NC(=O)c4nc5c(n4C)CCN(C)C5)c3Cl)c2C)cc1OC [Embodiment 41]

>  <value_reported>
1.9 nM

$$$$
>  <compound>
COc1cc(C(=O)Nc2cccc(-c3cccc(NC(=O)c4nc5c(n4C)CCN(C)C5)c3Cl)c2C)ncc1CNC[C@@H]1CCC(=O)N1 [Embodiment 39]

>  <value_reported>
1.9 nM

$$$$
>  <compound>
COc1cc(C(=O)Nc2cccc(-c3cccc(NC(=O)c4nc5c(n4C)CCN(C)C5)c3Cl)c2C)ncc1CNc1ccnc(C)n1 [Embodiment 90]

>  <value_reported>
9.9 nM

$$$$
>  <compound>
COc1cc(C(=O)Nc2cccc(-c3cccc(NC(=O)c4nc5c(n4C)CCN(C)C5)c3Cl)c2C)ncc1CN1CC[C@@H](F)C1 [Embodiment 25]

>  <value_reported>
0.9 nM

$$$$
>  <compound>
COc1nc(-c2cccc(-c3cccc(NC(=O)c4nc5c(n4C)CCN(C)C5)c3Cl)c2Cl)ccc1CN1CC(O)C1 [Embodiment 129]

>  <value_reported>
1 nM

$$$$
>  <compound>
COc1cc(NCc2cnc(C(=O)Nc3cccc(-c4cccc(NC(=O)c5nc6c(n5C)CCN(C(C)C)C6)c4Cl)c3C)cc2OC)ccn1 [Embodiment 70]

>  <value_reported>
4 nM

$$$$
>  <compound>
COc1cc(C(=O)Nc2cccc(-c3cccc(NC(=O)c4nc5c(n4C)CCN(C)C5)c3Cl)c2C)ncc1CNCc1ncccc1OC [Embodiment 13]

>  <value_reported>
6.6 nM

$$$$
>  <compound>
COc1cc(C(=O)Nc2cccc(-c3cccc(NC(=O)c4nc5c(n4C)CCN(C)C5)c3Cl)c2C)ncc1CNc1cc(C)ccn1 [Embodiment 11]

>  <value_reported>
8.1 nM

$$$$
>  <compound>
COc1cc(C(=O)Nc2cccc(-c3cccc(NC(=O)c4nc5c(n4C)CCN(C)C5)c3Cl)c2C)ncc1CNC1(C)COC1 [Embodiment 99]

>  <value_reported>
3.9 nM

$$$$
>  <compound>
COc1cc(NCc2cnc(C(=O)Nc3cccc(-c4cccc(NC(=O)c5nc6c(n5C)CCNC6)c4Cl)c3Cl)cc2OC)ccn1 [Embodiment 81]

>  <value_reported>
5 nM

$$$$
>  <compound>
COc1nc(-c2cccc(-c3cccc(NC(=O)c4nc5c(n4C)CCN(C)C5)c3Cl)c2Cl)ccc1CN1CC2(CCCO2)C1 [Embodiment 125]

>  <value_reported>
0.7 nM

$$$$
>  <compound>
COc1cc(C(=O)Nc2cccc(-c3cccc(NC(=O)c4nc5c(n4C)CCN(C)C5)c3Cl)c2C)ncc1CNC1COC1 [Embodiment 36]

>  <value_reported>
3.1 nM

$$$$
>  <compound>
COc1nc(-c2cccc(-c3cccc(NC(=O)c4nc5c(n4C)CCN(C)C5)c3Cl)c2Cl)ccc1CN1CC(NC(C)=O)C1 [Embodiment 180]

>  <value_reported>
0.6 nM

$$$$
>  <compound>
COc1cc(NCc2cnc(C(=O)Nc3cccc(-c4cccc(NC(=O)c5nc6c(n5C)CCN(C)C6)c4Cl)c3C)cc2OC)ccn1 [Embodiment 1]

>  <value_reported>
3.4 nM

$$$$
>  <compound>
COc1nc(-c2cccc(-c3cccc(NC(=O)c4nc5c(n4C)CCN(C)C5)c3Cl)c2Cl)ccc1CN1CC(OC(C)=O)C1 [Embodiment 122]

>  <value_reported>
0.4 nM

$$$$
>  <compound>
Cc1c(NC(=O)c2cc(C3CC3)c(CO)cn2)cccc1-c1cccc(NC(=O)c2nc3c(n2C)CCN(C)C3)c1Cl [Embodiment 51]

>  <value_reported>
11.8 nM

$$$$
>  <compound>
COc1nc(-c2cccc(-c3cccc(NC(=O)c4nc5c(n4C)CCN(C)C5)c3Cl)c2Cl)ccc1CN1CC(F)C1 [Embodiment 120]

>  <value_reported>
1.2 nM

$$$$
>  <compound>
COc1nc(-c2cccc(-c3cccc(NC(=O)c4nc5c(n4C)CCN(C)C5)c3Cl)c2Cl)ccc1CNC1COC1 [Embodiment 114]

>  <value_reported>
1.2 nM

$$$$
>  <compound>
COc1cc(C(=O)Nc2cccc(-c3cccc(NC(=O)c4nc5c(n4C)CCN(C)C5)c3Cl)c2C)ncc1CNCCF [Embodiment 18]

>  <value_reported>
1.5 nM

$$$$
>  <compound>
COc1nc(-c2cccc(-c3cccc(NC(=O)c4nc5c(n4C)CCN(C)C5)c3Cl)c2Cl)ccc1CN1CC2(C1)CN(S(C)(=O)=O)C2 [Embodiment 192]

>  <value_reported>
0.3 nM

$$$$
>  <compound>
COc1cc(C(=O)Nc2cccc(-c3cccc(NC(=O)c4nc5c(n4C)CCN(C)C5)c3Cl)c2C)ncc1CNCC(C)O (stereo in doubt) [Embodiment 38]

>  <value_reported>
0.6 nM

$$$$
>  <compound>
COc1nc(-c2cccc(-c3cccc(NC(=O)c4nc5c(n4C)CCN(C)C5)c3Cl)c2Cl)ccc1CN1CC(C)(O)C1 [Embodiment 130]

>  <value_reported>
1.2 nM

$$$$
>  <compound>
COc1cc(C(=O)Nc2cccc(-c3cccc(NC(=O)c4nc5c(n4C)CCN(C)C5)c3Cl)c2C)ncc1CNc1ccnc(C)c1F [Embodiment 6]

>  <value_reported>
1.1 nM

$$$$
>  <compound>
COc1cc(-c2cccc(-c3cccc(NC(=O)c4nc5c(n4C)CCN(C)C5)c3Cl)c2Cl)ncc1CNC[C@@H]1CCC(=O)N1 [Embodiment 56]

>  <value_reported>
12.2 nM

$$$$
>  <compound>
COc1cc(C(=O)Nc2cccc(-c3cccc(NC(=O)c4nc5c(n4C)CCN(C)C5)c3Cl)c2C)ncc1CNCCO [Embodiment 37]

>  <value_reported>
0.6 nM

$$$$

From: patent US20230105212A1
